Every entry's value here was drawn from patent US7687547B2.

- STUDY TARGET: InhA (Mycobacterium tuberculosis, UniProt P9WGR1)
- Sequence (P9WGR1 whole entry, looked up): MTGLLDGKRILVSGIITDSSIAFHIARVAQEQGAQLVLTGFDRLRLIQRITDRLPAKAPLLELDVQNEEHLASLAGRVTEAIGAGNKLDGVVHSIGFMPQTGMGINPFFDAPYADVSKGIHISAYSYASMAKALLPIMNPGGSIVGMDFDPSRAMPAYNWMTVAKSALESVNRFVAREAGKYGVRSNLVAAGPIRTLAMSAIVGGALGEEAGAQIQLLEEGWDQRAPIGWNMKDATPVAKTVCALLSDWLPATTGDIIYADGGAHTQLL
- PROTOCOL SUMMARY: InhA enzyme inhibition IC50 (NADH oxidation at 340 nm, DD-CoA substrate)
- Type: biochemical, M. tuberculosis
READOUT: IC50 (µM)

{"columns": ["MOLECULE", "STUDY TARGET", "NUMERIC READOUT"],
 "data": [
  ["CCCCCCc1ccc(Oc2ccccc2)c(O)c1 [-(n-C6H13), 5-hexyl-2-phenoxyphenol]", "InhA (Mycobacterium tuberculosis, UniProt P9WGR1)", 0.01]
]}

###

- STUDY TARGET: InhA (Mycobacterium tuberculosis, UniProt P9WGR1)
- PROTOCOL SUMMARY: InhA enzyme inhibition IC50 (NADH oxidation at 340 nm, DD-CoA substrate)
- Assay type: biochemical, M. tuberculosis
- CONDITION: InhA, 250 μM NADH, DD-CoA substrate, 25° C., pH 6.8; read-out: IC50
pIC50: −log10 of the molar value.
READOUT: pIC50

{"columns": ["MOL", "NUMERIC READOUT"],
 "data": [
  ["CCCCCCCCc1ccc(Oc2ccccc2)c(O)c1", 8.30],
  ["CCCCc1ccc(Oc2ccccc2)c(O)c1", 7.10],
  ["CCc1ccc(Oc2ccccc2)c(O)c1", 5.70],
  ["CCCCCc1ccc(Oc2ccccc2)c(O)c1", 7.77]
]}
